System: MTOR;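 also: KINOMEscan kinase panel screen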
ASSAY CONDITIONS: concentration: 1 μM,replicates: in singlicate; n = 1
Condition met means recorded %Inh is 10% or above; Condition not met means it is below 10%.

Examples from the recorded data:
{"COMPOUND": "CS(=O)(=O)Nc1ccc(-c2ccnc3[nH]ccc23)cc1", "GROUP": "Condition not met"}
{"COMPOUND": "CCN1CCN(CCCC(=O)Nc2n[nH]c3nc(-c4ccc(O)cc4)c(Br)cc23)CC1", "GROUP": "Condition not met"}

Problem: Given CC(C(=O)NC1CCN(c2ccnc(Nc3ccc(F)cc3)n2)C1)c1ccc(Cl)cc1 (stereo not shown) , state whether its %Inh is at least 10%.
Solution: Condition met

Problem: Is reported %Inh greater than or equal to 10% here: `C[C@@H]1CNc2c(sc3ccc4nc(-c5ccc(O)cc5)ccc4c23)C(=O)N1`
Solution: Condition not met

Problem: Tell me whether %Inh is at least 10% here: `CC(=O)c1c(-c2ccncc2)[nH]c(-c2ccncc2)c1C`
Solution: Condition not met

Problem: Can `CC(=O)Nc1nc2cnc(Nc3cc(NC(=O)c4cccc(CC(C)(C)C#N)c4)ccc3C)nc2s1` be said to have %Inh at or above 10%?
Solution: Condition met

Problem: Check the entry `O=C(NCC1CC1)c1ccc(-c2cc(C(=O)NC3CC3)ccc2F)cc1` : does %Inh equal or exceed 10%?
Solution: Condition met

Problem: Please indicate if the recorded %Inh for `Cn1ccc2ncnc(Oc3ccc(NC(=O)Nc4cnn(C(C)(C)C)c4)c(Cl)c3)c21` meets or exceeds 10%.
Solution: Condition not met

Problem: Quick check, %Inh >= 10%? `CCCC(=O)Nc1n[nH]c2ncccc12`
Solution: Condition not met

Data provenance: paper PMC5540273
